Values compiled from patent US20080274055A1.

# EXPERIMENTAL_TARGET: T1, carcinoembryonic antigen (CEA) (human, UniProt P06731 35-685)
# T1 sequence (looked up): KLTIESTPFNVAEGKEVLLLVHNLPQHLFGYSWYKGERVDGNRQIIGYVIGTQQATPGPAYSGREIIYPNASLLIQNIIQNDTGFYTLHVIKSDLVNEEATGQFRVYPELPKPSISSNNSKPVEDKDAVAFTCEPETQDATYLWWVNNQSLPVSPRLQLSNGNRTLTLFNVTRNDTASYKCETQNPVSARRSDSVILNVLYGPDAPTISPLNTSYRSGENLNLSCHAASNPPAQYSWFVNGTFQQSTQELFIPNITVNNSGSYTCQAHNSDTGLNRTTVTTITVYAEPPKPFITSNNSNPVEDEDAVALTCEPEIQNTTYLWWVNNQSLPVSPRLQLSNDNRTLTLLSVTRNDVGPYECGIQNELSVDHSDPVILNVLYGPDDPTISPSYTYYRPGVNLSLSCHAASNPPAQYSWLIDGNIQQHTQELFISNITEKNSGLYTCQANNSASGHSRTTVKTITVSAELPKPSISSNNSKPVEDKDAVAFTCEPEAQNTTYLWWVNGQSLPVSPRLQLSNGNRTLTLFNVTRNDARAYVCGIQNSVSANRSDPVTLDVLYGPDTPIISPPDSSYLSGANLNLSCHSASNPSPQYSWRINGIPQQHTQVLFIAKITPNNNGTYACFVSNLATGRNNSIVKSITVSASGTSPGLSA
# PROCEDURE_DETAILS: competition RIA against 125I-mCOL-1; reference of the fold not named
Examples of binders with documented Fold Difference follow.
Quick note: give the figure in fold, leave out the unit.

Some binders with known Fold Difference results, for comparison:
binder="chimeric COL-1 (antibody, V domains shown) VH: EVQLQQSGAELVRSGASVKMSCTASGFNIKDYYMHWVKQRPEQGLEWIGWIDPENGDTEYAPKFQGKATMTTDTSSNTAYLQLSSLTSEDTAVYYCNTRGLSTMITTRWFFDVWGAGTTVAVSS VL: DIVLTQSPASLTVSLGLRATISCRASKSVSASGYSYMHWYQQRPGQPPKLLIYLASNLQSGVPARFSGSGSGTDFTLNIHPVEEEDAATYYCQHSRELPTFGGGTKLEIK" readout_name="Fold Difference" experimental_value=1.4
binder="FRV11 (antibody, name in Kabat numbering, V domains shown, Kabat positions (see notes of FRV2 and FRV8); also called HuCOL-1AbrCDR framework variant 11) VH: QVQLVQSGAEVKKPGASVKVSCKASGYNIKDYYMHWVRQRPEQGLEWMGWIDPENGDTEYAQKFQGRVTMTTDTSTSTVYMELSSLRSEDTAVYYCNTRGLSTMITTRWFFDVWGAGTLVTVSS VL: DIVMTQSPASLAVSLGERATINCKSSQSVSASGYSYMHWYQQKPGQPPKLLIYLASNLQSGVPARFSGSGSGTDFTLTISSLQAEDVATYYCQHSRELPTFGGGTKVEIK" readout_name="Fold Difference" experimental_value=4.5

Which Fold Difference reading was recorded for the binder FRV9 (antibody, name in Kabat numbering, V domains shown, Kabat positions (see notes of FRV2 and FRV8); also called HuCOL-1AbrCDR framework variant 9) VH: EVQLVQSGAEVVKPGASVKVSCKASGYNIKDYYMHWVRQRPEQGLEWMGWIDPENGDTEYAQKFQGRVTMTTDTSTSTVYMELSSLRSEDTAVYYCNTRGLSTMITTRWFFDVWGAGTLVTVSS VL: DIVMTQSPASLAVSLGERATINCKSSQSVSASGYSYMHWYQQKPGQPPKLLIYLASNLQSGVPDRFSGSGSGTDFTLTISSLQAEDVAVYYCQHSRELPTFGGGTKVEIK ?
4.5
